// data source = the supplement of paper PMC10567573

B1: ALDH8A1 (parent)
chain: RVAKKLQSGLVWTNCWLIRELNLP

- Variants of: B1
- ASSAY NOTES: protein stability index of a GFP-peptide fusion (GPS, HEK-293T) (PSI 1-6); higher = more stable;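 note: lentivirally expressed fusions sorted by FACS into six bins by GFP to DsRed ratio, PSI derived from sequencing read proportions per bin multiplied by bin number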
- EXPERIMENTAL CONTEXT: c terminus: a fixed tail appended
READOUT LABEL: protein stability index
Numbers only.

See these solved cases before continuing.
>  <VARIANT DESCRIPTOR>
L17Q

>  <protein stability index>
1.32

$$$$
>  <VARIANT DESCRIPTOR>
G9T

>  <protein stability index>
3.22

$$$$
>  <VARIANT DESCRIPTOR>
V2T

>  <protein stability index>
2.33

$$$$
>  <VARIANT DESCRIPTOR>
L6E

>  <protein stability index>
2.26

$$$$

Would you mind giving protein stability index for every variant in the list below?
1. V11P
2. S8A
3. N14P
4. N14M
5. A3M
6. L6P

Resp:
[2.11, 3.67, 2.06, 2.04, 3.44, 1.95]

For each of the items listed, what is its protein stability index?
1. K5T
2. L21D

Resp:
1: 2.88; 2: 3.05
